Overview of recorded TGI for various compounds
# System: HOP-92 NSCLC
# Test: NCI tumour cell line growth inhibition, 48 h

| Compound | TGI |
| --- | --- |
| OCc1ccccc1OC1OC(CO)C(O)C(O)C1O (stereo unspecified) | > 100 µM |
| CSc1nc2c(ncn2C2OCC(O)C(O)C2O)c(=O)[nH]1 (stereo unspecified) | > 100 µM |
| Clc1ccccc1C1=NN(c2ccccc2)C2c3cc(Br)ccc3OCC12 (stereo unspecified) | > 100 µM |
| C=CC1(CCC(Br)C(C)(C)Cl)CO1 (stereo unspecified) | > 10 µM |
| CSc1nc(Br)nc2c1ncn2C1CC(Oc2ccc(C)cc2)C(COc2ccc(C)cc2)O1 (stereo unspecified) | > 100 µM |
| Fc1nc(F)nc(-c2c3ccccc3c3n2CCS3)n1 | > 100 µM |

TGI on HOP-92 NSCLC for `CCOC(=O)NNC(=O)NC12CC3CC(CC(C3)C1)C2` is > 100 µM

# `COc1ccccc1OC/C(N=Cc1ccncc1)=N/NC(=O)c1ccncc1` with HOP-92 NSCLC: TGI is > 100 µM

Entry `Cc1cnc2[nH]c(-c3ccccc3)cc(=O)c2c1` ; assay system HOP-92 NSCLC; TGI recorded at > 42.2 µM

Item `Cc1nc(C(N)=S)sc1C(=O)CC(=O)C(=O)Nc1cccc(Cl)c1C` ; assay system HOP-92 NSCLC; TGI reported as > 100 µM

Item `CC(=O)Nc1ncc2c(n1)-c1ccccc1OC2` was tested on HOP-92 NSCLC; the reported TGI is > 100 µM

I looked up CCCCCCCCCCCCCCCC(=O)OCC1OC(n2ccc(N)nc2=O)C(O)C1O (stereo unspecified) and its TGI for HOP-92 NSCLC was > 100 µM

----------
Listed below: TGI values for each entry.
# Test system: 786-0 renal
# Test: NCI tumour cell line growth inhibition, 48 h
Reply with just the number (in µM).

| Compound | Experimental Target | Measured Parameter | Output Unit | Recorded Value |
| --- | --- | --- | --- | --- |
| Cc1ccc(Nc2nnc3n2S(=O)(=O)c2cc(C)c(Cl)cc2S3)cc1 | 786-0 renal | TGI | µM | 35.5 |
| CC(C)n1nc(C#Cc2cccc(NC(=O)c3cccc(C(F)(F)F)c3)c2)c2c(N)ncnc21 | 786-0 renal | TGI | µM | 14.3 |
| CCCCCCN(CCCCCC)CC(O)c1cccc2ccc(Cl)cc12 (stereo unspecified) | 786-0 renal | TGI | µM | 23.7 |

Entry `O=[N+]([O-])c1cccc(-c2ncc(-c3ccc(Cl)cc3Cl)[nH]2)c1` — recorded TGI = 11

----------
Listing of recorded GI50 by entry.
# System: HT29 colon
# Test: NCI tumour cell line growth inhibition, 48 h

| Molecule | Experimental Target | GI50 |
| --- | --- | --- |
| COC(=O)C1=C(O)C(C(=O)OC)[C@@]2(O)[C@@H](C(=O)OC)C(c3ccc(OC(=O)C(CC(C)C)NC(C)=O)cc3)C[C@@H]1[C@@H]2C(=O)OC (stereo partly drawn) | HT29 colon | 62200 nM |

COC1C(CO)OC(n2c3ccccc3c3c4c(c5c6ccccc6[nH]c5c32)C(=O)NC4=O)C(O)C1OC(=O)C(N)CCCCN (stereo not drawn) yielded GI50 of 2650 nM

According to the records, this molecule `CC(C)(C)c1ccc(S(=O)(=O)N[C@H]2CC[C@H]3[C@@H]4CCc5cc(O)ccc5[C@H]4CC[C@]23C)cc1` displays GI50 of 1960 nM
